Data origin: ChEMBL document CHEMBL1150393

# Tested on: Blood
# ASSAY PROCEDURE: Biodistribution in blood of C57BL/6 mouse bearing mouse B16-F0 cells at 0.74 to 0.92 MBq, iv after 1 hr
# Type: ADME, organism-based
# CONDITION SUMMARY: in vivo
OBSERVABLE: Drug uptake (% ID/g)

Past entries and their recorded results:
{"STRUCTURE AS SMILES": "CCN(CC)CCNC(=O)c1nc2cc([125I])ccc2[nH]1.Cl.Cl", "STUDY TARGET": "Blood", "QUANTITATIVE RESULT": 3.31}
{"STRUCTURE AS SMILES": "CCN(CC)CCNC(=O)c1cc2c([125I])cccc2cn1.Cl.Cl", "STUDY TARGET": "Blood", "QUANTITATIVE RESULT": 2.15}
{"STRUCTURE AS SMILES": "CCN(CC)CCNC(=O)c1ccc2cc([125I])ccc2n1.Cl.Cl", "STUDY TARGET": "Blood", "QUANTITATIVE RESULT": 7.01}

[I] CCN(CC)CCNC(=O)c1cn2cc([125I])ccc2n1.Cl.Cl
[II] CCN(CC)CCNC(=O)c1cc2cc([125I])ccc2[nH]1.Cl
[III] CCN(CC)CCNC(=O)c1c[nH]c2ccc([125I])cc2c1=O.Cl.Cl
[IV] CCN(CC)CCNC(=O)c1ccc2cc([125I])ccc2c1.Cl
[V] CCN(CC)CCNC(=O)c1ccc([125I])nc1.Cl.Cl
Put the items in sequence by Drug uptake, from largest down. As an answer, provide the labels arranged in the order called for. V, IV, II, I, III
(V: 6.67 % ID/g, IV: 2.97 % ID/g, II: 1.6 % ID/g, I: 0.68 % ID/g, III: 0.42 % ID/g)

[I] CCN(CC)CCNC(=O)c1ccc2cncc([125I])c2n1.Cl.Cl
[II] CCN(CC)CCNC(=O)c1cnc2cc([125I])ccc2n1.Cl.Cl
[III] CCN(CC)CCNC(=O)c1cc2c([125I])cccc2s1.Cl
Ordering criterion: Drug uptake; begin with the maximum. Kindly provide the labels arranged according to the requested ordering. II, I, III
(II: 3.45 % ID/g, I: 2.21 % ID/g, III: 1.37 % ID/g)

* * *

# ASSAY PROCEDURE: Biodistribution in uvea of C57BL/6 mouse bearing mouse B16-F0 cells at 0.74 to 0.92 MBq, iv after 1 hr
# Type: ADME, organism-based, Uveal tract
# CONDITION SUMMARY: in vivo
OBSERVABLE: Drug uptake (% ID/g)

Reference set, count: 4
{"STRUCTURE AS SMILES": "CCN(CC)CCNC(=O)c1ccc2cc([125I])ccc2c1.Cl", "OBSERVABLE": "Drug uptake", "UNITS TEXT": "% ID/g", "QUANTITATIVE RESULT": 13.21}
{"STRUCTURE AS SMILES": "CCN(CC)CCNC(=O)c1cn2cc([125I])ccc2n1.Cl.Cl", "OBSERVABLE": "Drug uptake", "UNITS TEXT": "% ID/g", "QUANTITATIVE RESULT": 17.43}
{"STRUCTURE AS SMILES": "CCN(CC)CCNC(=O)c1cc2cc([125I])ccc2[nH]1.Cl", "OBSERVABLE": "Drug uptake", "UNITS TEXT": "% ID/g", "QUANTITATIVE RESULT": 11.7}
{"STRUCTURE AS SMILES": "CCN(CC)CCNC(=O)c1ccc([125I])nc1.Cl.Cl", "OBSERVABLE": "Drug uptake", "UNITS TEXT": "% ID/g", "QUANTITATIVE RESULT": 16.66}

[A] CCN(CC)CCNC(=O)c1cc2c([125I])cccc2s1.Cl
[B] CCN(CC)CCNC(=O)c1cnc2cc([125I])ccc2n1.Cl.Cl
[C] CCN(CC)CCNC(=O)c1c[nH]c2ccc([125I])cc2c1=O.Cl.Cl
Exam item: list the entries in increasing order of Drug uptake. # list labels per requested ordering C, A, B

[1] CCN(CC)CCNC(=O)c1cc2cc([125I])ccc2o1.Cl
[2] CCN(CC)CCNC(=O)c1cc2c([125I])cccc2cn1.Cl.Cl
For the pair 1 and 2 , which member has the lower Drug uptake number? Let me know the label of the one you choose. 2
(2: 18.08 % ID/g, 1: 28.64 % ID/g)

[P] CCN(CC)CCNC(=O)c1ccc2cc([125I])ccc2n1.Cl.Cl
[Q] CCN(CC)CCNC(=O)c1nc2cc([125I])ccc2[nH]1.Cl.Cl
Between P and Q , which one shows the larger Drug uptake value? The response must carry the label of the picked entry. P
